Recorded Kd, one value per entry.
# Target: T1, beta-lactoglobulin (UniProt P02754 P02754:17-178)
# T1 sequence: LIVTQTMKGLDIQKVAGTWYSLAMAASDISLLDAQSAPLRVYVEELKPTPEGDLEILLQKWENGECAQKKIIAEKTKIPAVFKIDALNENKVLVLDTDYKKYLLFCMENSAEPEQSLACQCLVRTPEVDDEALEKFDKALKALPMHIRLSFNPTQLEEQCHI
# Protocol: magnetic bead strand-displacement fluorescence assay, 37 C
# Test Settings: label: 5'-FAM (fluorescence assay)
Quantity Measured: Kd

Binder | Assay Result
Lg-9 (ssDNA) DNA: AGCAGCACAGAGGTCAGATGGTTTTGTTGGGTCTGCTACGGACTTTGTTGACCTTTGCTCCCTATGCGTGCTACCGTGAA | 71.8 nM
Lg-16 (ssDNA) DNA: AGCAGCACAGAGGTCAGATGTCGTTTGTGGCTGTCAATTGGTGTGTTTACCTGTTTTGGCCTATGCGTGCTACCGTGAA | 65.8 nM
